# Measured on: recombinant HSP90α (Homo sapiens)
# Protocol description: HSP90 inhibition activity assay, FITC-geldanamycin competitive binding fluorescence polarization
# Condition: 1 pM-10 μM, 2 h, FITC-labeled geldanamycin
Property: IC50 (nM)
Answers are plain numbers, in nM.

QUERY: # return recorded IC50 for entry Cc1ccccc1-n1c(=O)n(Cc2ccccc2)c(=O)c2[nH]cnc21
RESULT: 731

Cited source for all entries: patent US20240425508A1
